Numbers sourced from ChEMBL document CHEMBL3352485.

Below: a set of entries, each annotated with reported EC50.
target: KiSS-1 receptor (Homo sapiens, UniProt Q969F8); test: Agonist activity at human KISS1R transfected in CHO cells assessed as intracellular calcium flux after 24 hrs by functional FLIPR assay
Sequence (Q969F8 whole entry): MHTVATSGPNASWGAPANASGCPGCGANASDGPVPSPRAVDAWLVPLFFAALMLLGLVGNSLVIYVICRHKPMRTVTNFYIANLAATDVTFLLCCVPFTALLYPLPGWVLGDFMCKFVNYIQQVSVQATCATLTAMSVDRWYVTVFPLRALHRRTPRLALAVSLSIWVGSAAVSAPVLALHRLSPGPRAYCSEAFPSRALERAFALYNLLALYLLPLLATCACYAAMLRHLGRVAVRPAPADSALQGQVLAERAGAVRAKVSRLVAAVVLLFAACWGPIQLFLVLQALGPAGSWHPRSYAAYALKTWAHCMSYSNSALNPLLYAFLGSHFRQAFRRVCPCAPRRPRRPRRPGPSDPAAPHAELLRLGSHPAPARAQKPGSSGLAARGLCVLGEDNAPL
assay_endpoint: EC50 (nM)

>>> value_reported("CNC(=N)NCCC[C@H](NC(=O)[C@H](CC(C)C)NC(=O)NNC(=O)[C@H](Cc1ccccc1)NC(=O)[C@H](CO)NC(=O)[C@H](C)NC(=O)[C@@H](Cc1ccncc1)NC(=O)[C@H](N)Cc1ccc(O)cc1)C(=O)N[C@@H](Cc1c[nH]c2ccccc12)C(N)=O")
0.7
>>> value_reported("CNC(=N)NCCC[C@H](NC(=O)[C@H](CC(C)C)NC(=O)NNC(=O)[C@H](Cc1ccccc1)NC(=O)[C@H](CO)NC(=O)[C@H](C)NC(=O)[C@@H](Cc1c[nH]c2ccccc12)NC(=O)[C@H](N)Cc1ccc(O)cc1)C(=O)N[C@@H](Cc1c[nH]c2ccccc12)C(N)=O")
0.49
>>> value_reported("CNC(=N)NCCC[C@H](NC(=O)[C@H](CC(C)C)NC(=O)NNC(=O)[C@H](Cc1ccccc1)NC(=O)[C@H](CO)NC(=O)[C@H](CC(N)=O)NC(=O)[C@@H](Cc1ccncc1)NC(=O)[C@H](N)Cc1ccc(O)cc1)C(=O)N[C@@H](Cc1c[nH]c2ccccc12)C(N)=O")
0.87
>>> value_reported("CNC(=N)NCCC[C@H](NC(=O)[C@H](CC(C)C)NC(=O)NNC(=O)[C@H](Cc1ccccc1)NC(=O)[C@@H](NC(=O)[C@H](CC(N)=O)NC(=O)[C@@H](Cc1c[nH]c2ccccc12)NC(=O)[C@@H](Cc1ccc(O)cc1)NC(=O)c1ccccc1)[C@@H](C)O)C(=O)N[C@@H](Cc1c[nH]c2ccccc12)C(N)=O")
0.44
